Origin of the recorded values: patent US20140213531A1

Can you tell me IC50 for the items I'm about to list?
Target: T1, Elastase from human neutrophils (human, UniProt P08246 30-247, limits assumed)
T1 sequence (looked up): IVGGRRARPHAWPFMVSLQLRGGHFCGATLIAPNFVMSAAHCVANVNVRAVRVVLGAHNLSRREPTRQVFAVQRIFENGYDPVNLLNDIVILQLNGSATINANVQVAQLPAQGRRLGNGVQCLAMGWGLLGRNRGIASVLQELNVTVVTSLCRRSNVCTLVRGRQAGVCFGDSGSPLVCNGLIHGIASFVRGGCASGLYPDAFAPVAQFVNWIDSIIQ
Experiment: cell-based or functional assay
Quick reminder: number only, in nmol, skip the unit.

Ask: Consider the binder shown here: XCTTSIPPYCY (HELM PEPTIDE1{[Nle].C.T.T.S.I.P.P.Y.C.Y.[dP].P}$PEPTIDE1,PEPTIDE1,2:R3-10:R3|PEPTIDE1,PEPTIDE1,1:R1-13:R2$$$V2.0; SMILES CCCC[C@@H]1NC(=O)[C@@H]2CCCN2C(=O)[C@H]2CCCN2C(=O)[C@H](Cc2ccc(O)cc2)NC(=O)[C@@H]2CSSC[C@H](NC1=O)C(=O)N[C@@H]([C@@H](C)O)C(=O)N[C@@H]([C@@H](C)O)C(=O)N[C@@H](CO)C(=O)N[C@@H]([C@@H](C)CC)C(=O)N1CCC[C@H]1C(=O)N1CCC[C@H]1C(=O)N[C@@H](Cc1ccc(O)cc1)C(=O)N2) [Example 77] What is its recorded IC50?
Result: 68

Ask: // query IC50 value for entry FCTKSEPPICS (HELM PEPTIDE1{F.C.T.K.S.E.P.P.I.C.S.[dP].P}$PEPTIDE1,PEPTIDE1,2:R3-10:R3|PEPTIDE1,PEPTIDE1,1:R1-13:R2$$$V2.0; SMILES CC[C@H](C)[C@@H]1NC(=O)[C@@H]2CCCN2C(=O)[C@@H]2CCCN2C(=O)[C@H](CCC(=O)O)NC(=O)[C@H](CO)NC(=O)[C@H](CCCCN)NC(=O)[C@H]([C@@H](C)O)NC(=O)[C@@H]2CSSC[C@H](NC1=O)C(=O)N[C@@H](CO)C(=O)N1CCC[C@@H]1C(=O)N1CCC[C@H]1C(=O)N[C@@H](Cc1ccccc1)C(=O)N2) [Example 21]
Result: 16.4
